Test system: SK-MEL-28 melanoma
Test: NCI tumour cell line growth inhibition, 48 h
What TGI was measured for each of the following?
One number for each entry, in µM.

Examples with their reported TGI follow.
INSERT INTO measurements (compound, observed_property, recorded_result) VALUES
  ('NC(=O)OCCn1cc(-c2nc(-c3c[nH]c4ncccc34)cs2)c2ccccc21', 'TGI', 14.8),
  ('CCOC(=O)/C=C(/C)Sc1cc(O)c2ccccc2c1O', 'TGI', 5.45),
  ('O=C(c1cccs1)N(C(=O)N1CCN(c2ccccc2)CC1)S(=O)(=O)c1ccccc1', 'TGI', 56.3);

Given item CCC(C)C1NC(=O)C(NC(=O)c2c3[nH]c4c(C(=O)NC5C(=O)NC(C(C)CC)C(=O)N6CCCC6C(=O)N(C)CC(=O)N(C)C(C(C)C)C(=O)OC5C)ccc(C)c4oc-3c(C)c(=O)c2=O)C(C)OC(=O)C(C(C)C)N(C)C(=O)CN(C)C(=O)C2CCCN2C1=O (centres undefined) , the value recorded as its TGI is 76.3
